assay.text: Velocity compared to a control 50 uM aminopterin run on each test
Format: ADME
metric.name: Vm rel (%)

| molecule.smiles | metric.name | quantity.unit | reading |
| --- | --- | --- | --- |
| Nc1nc(O)c2c(n1)CCc1ccc(S(=O)(=O)Nc3ccc(C(=O)N[C@@H](CCC(=O)O)C(=O)O)cc3)cc1-2 | Vm rel | % | 115 |
| Cc1nc(O)c2c(n1)CCc1ccc(S(=O)(=O)Nc3ccc(C(=O)N[C@@H](CCC(=O)O)C(=O)O)cc3)cc1-2 | Vm rel | % | 109 |
| Cc1nc2ccc3ccc(S(=O)(=O)Nc4ccc(C(=O)N[C@@H](CCC(=O)O)C(=O)O)cc4)cc3c2c(=O)[nH]1 | Vm rel | % | 185 |
| Nc1nc(O)c2c(n1)CCc1cc(Br)c(S(=O)(=O)Nc3ccc(C(=O)N[C@@H](CCC(=O)O)C(=O)O)cc3)cc1-2 | Vm rel | % | 28.9 |
| Nc1nc(O)c2c(n1)CCc1cc(S(=O)(=O)Nc3ccc(C(=O)N[C@@H](CCC(=O)O)C(=O)O)cc3)ccc1-2 | Vm rel | % | 102 |
